Reported helicity (second value) values follow for various substances
MEASUREMENT_NOTES: Circular dichroism, α-helical content of peptide alone
Assay type: physicochemical
DETAILS: CD, 50% TFE in 10 mM H3PO4, 20 °C
Square brackets hold non-standard residues; d marks the D form. Ends that are not written are not given here. Orn = NCCC[C@H](N)C(=O)O; Dab = NCC[C@H](N)C(=O)O; Dap = NC[C@H](N)C(=O)O
Reply numerically in %, unit not repeated.

Example results:
SUBSTANCE | helicity (second value) / %
LKKLL[Dab]LLKKLLKWAG [3e] | 45
LKKLLKLL[Dab]KLLKLAG [2e] | 57
LKKLL[Dab]WLKKLLKLAG [3a] | 55
Ac-LKKLLKLWKKLLKLAG-NH2 [2r] | 59
Ac-LKKWLKLLKKLLKLAG-NH2 [2o] | 52
Ac-LKKLLKLLKKLWKLAG-NH2 [2t] | 58

// LKKLLKLL[Orn]KLLKLAG [2d] : helicity (second value) value = 57

Entry LKKLLKLLKKLL[Dap]WAG [3g] , helicity (second value) reported as 63

helicity (second value) recorded for this substance, LKKLLKWL[Orn]KLLKLAG [3b] , is 52

The recorded helicity (second value) for entry Ac-LKKLLKLLKKWLKLAG-NH2 [2s] equals 60

Per the record, LKKLL[Dap]LLKKLLKLAG [2c] has helicity (second value) of 61

Per the records, this substance ( LKKLLKLLKKLL[Orn]LAG [2g] ) has helicity (second value) equal to 53

So for LKKLLKWL[Orn]KLL[Dap]LAG [3d] , the logged helicity (second value) turned out to be 38

Value of measured helicity (second value) for the entry LKKLLKLL[Orn]KLLKWAG [3f] : 58

----------
MEASUREMENT_NOTES: Circular dichroism, α-helical content of peptide alone
Type: physicochemical
DETAILS: CD, 50% TFE in 10 mM H3PO4, 20 °C
Square brackets hold non-standard residues; d marks the D form. Ends that are not written are not given here. Orn = NCCC[C@H](N)C(=O)O; Dab = NCC[C@H](N)C(=O)O; Dap = NC[C@H](N)C(=O)O
Measured helicity (second value) accompanies every entry in the list below.
Note: state the figure and append the unit.

The examples below pair each entry with its known result.
SUBSTANCE | RESULT
Ac-WKKLLKLLKKLLKLAG-NH2 [2n] | 65%
LKKLLKLL[Orn]KLL[Dap]LAG [2k] | 61%
LKKLL[Dab]LL[Orn]KLLKLAG [2j] | 57%

Per the records, this substance ( Ac-LKKLWKLLKKLLKLAG-NH2 [2p] ) has helicity (second value) equal to 56%

----------
MEASUREMENT_NOTES: Circular dichroism, α-helical content of peptide alone
Type: physicochemical
DETAILS: CD, 50% TFE in 10 mM H3PO4, 20 °C
Square brackets hold non-standard residues; d marks the D form. Ends that are not written are not given here. Dab = NCC[C@H](N)C(=O)O; Dap = NC[C@H](N)C(=O)O
ASSAY_READOUT: helicity (second value) (%)
Answer with a number only, understood to be in %.

Worked examples, 3 substances total:
SUBSTANCE | UNIT_LABEL | QUANTITATIVE_READOUT
LKKLLKWLKKLL[Dap]LAG [3c] | % | 36
LKKLLKLL[Dap]KLLKLAG [2f] | % | 57
LKKLL[Dab]LLKKLL[Dap]LAG [2l] | % | 50

Turning now to a further substance:
get_value(item= Ac-LKKLLKWLKKLLKLAG-NH2 [2q] , readout=helicity (second value)) returns 71
